Target: UniProtKB Q8N884
Sequence (Q8N884 whole entry): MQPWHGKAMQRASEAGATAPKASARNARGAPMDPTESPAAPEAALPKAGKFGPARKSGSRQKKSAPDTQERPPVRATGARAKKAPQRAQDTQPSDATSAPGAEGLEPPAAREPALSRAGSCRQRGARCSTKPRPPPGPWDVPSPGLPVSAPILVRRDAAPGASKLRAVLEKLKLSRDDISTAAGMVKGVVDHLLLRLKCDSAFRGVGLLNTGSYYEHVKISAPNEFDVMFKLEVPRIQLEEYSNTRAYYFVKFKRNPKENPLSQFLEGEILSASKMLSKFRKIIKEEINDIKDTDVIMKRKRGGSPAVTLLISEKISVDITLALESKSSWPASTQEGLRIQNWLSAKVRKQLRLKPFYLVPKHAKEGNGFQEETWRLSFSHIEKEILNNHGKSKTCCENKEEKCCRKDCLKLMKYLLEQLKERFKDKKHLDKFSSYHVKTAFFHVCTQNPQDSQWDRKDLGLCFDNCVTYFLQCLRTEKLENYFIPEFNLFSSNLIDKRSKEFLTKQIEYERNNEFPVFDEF
Assay: Inhibition of recombinant His6-SUMO tagged human CGAS expressed in Escherichia coli BL21/pLys cells incubated for 20 mins by Kinase Glo chemiluminescence assay
Observable: IC50

Field: example entries. Status: answers known.
[
  {
    "Molecule": "CC(Oc1cc(/C=C2\\SC(=O)N(C)C2=O)c(Br)cc1O)c1cnc(NCCO)nc1 (stereo not drawn)",
    "IC50": "0.5 to 10 µM"
  },
  {
    "Molecule": "CN1C(=O)S/C(=C\\c2cc(Oc3cnc(N)s3)c(O)c(F)c2Br)C1=O",
    "IC50": "0.5 to 10 µM"
  },
  {
    "Molecule": "CC(Oc1cc(/C=C2\\SC(=O)N(C)C2=O)c(Br)cc1O)c1cnc(Cl)nc1 (stereo not drawn)",
    "IC50": "≥ 10 µM"
  }
]

What value of IC50 has been recorded for this entry: Cc1nc(N)ncc1C(C)Oc1cc(/C=C2\SC(=O)N(C)C2=O)c(Br)cc1O (stereo not drawn) ≥ 10 µM

Also need CN1C(=O)S/C(=C\c2cc(OCc3cnc(O)nc3)c(O)cc2Br)C1=O , thanks. ≥ 10 µM

Also need CN1CCC(c2ncc(COc3cc(/C=C4\SC(=O)N(C)C4=O)c(Br)cc3O)cn2)CC1 , thanks. ≥ 10 µM

Also need CC(Oc1cc(/C=C2\SC(=O)N(C)C2=O)c(Br)c(F)c1O)C(O)c1cncnc1N (stereo not drawn) , thanks. ≤ 0.5 µM

Also need CN1C(=O)S/C(=C\c2cc(Oc3ccc(N)nc3)c(O)cc2Br)C1=O , thanks. ≥ 10 µM

Also need CN1C(=O)S/C(=C\c2cc(OCc3ncc(N)cn3)c(O)cc2Br)C1=O , thanks. ≥ 10 µM

Also need CC(=O)c1cc(/C=C2\SC(=O)N(C)C2=O)c(Br)cc1O , thanks. ≥ 10 µM

Also need COc1cc2c(cc1O)CC/C2=C1/SC(=O)N(C)C1=O , thanks. ≥ 10 µM

Also need O=C1NC(=O)/C(=C/c2ccncc2)N1 , thanks. 0.5 to 10 µM

Also need Nc1ncc(COc2cc(/C=C3\Sc4ncccc4C3=O)c(Br)cc2O)c(C(F)(F)F)n1 , thanks. ≤ 0.5 µM

Also need CC(Oc1cc(/C=C2\SC(=O)N(C)C2=O)c(Br)c(F)c1O)c1cnc(N)nc1 (stereo not drawn) , thanks. ≤ 0.5 µM

Also need O=C1/C(=C/c2cc(OCc3cnc(Cl)nc3)c(O)cc2Br)Sc2ncccc21 , thanks. ≤ 0.5 µM

Also need O=C1/C(=C/c2cc3oc(=O)[nH]c3cc2Br)Sc2ncccc21 , thanks. ≥ 10 µM

Also need CC/N=C1/S/C(=C\c2cc(OC)c(O)cc2Br)C(=O)N1C , thanks. ≥ 10 µM

Also need N=C1NC(=O)/C(=C/c2ccncc2)S1 , thanks. ≥ 10 µM

Also need CN1C(=O)S/C(=C\c2cc(OCc3cnc(Nc4ccccn4)nc3)c(O)cc2Br)C1=O , thanks. ≥ 10 µM

Also need O=C1/C(=C/c2cc(OCc3cnc(NCc4cccnc4)nc3)c(O)c(F)c2Br)Sc2ncccc21 , thanks. ≤ 0.5 µM

Also need COc1cc(/C=c2\sc3n(c2=O)CCCN=3)c(Cl)cc1O , thanks. ≥ 10 µM

Also need COc1cc(/C=C2\SC(=O)N(C)C2=O)c(Br)cc1Oc1nncs1 , thanks. ≥ 10 µM

Also need COc1cc(/C=c2\sc3nc(C)cn3c2=O)c(Br)cc1O , thanks. ≥ 10 µM

Also need O=C1NC(=O)/C(=C/c2c[nH]cn2)S1 , thanks. ≥ 10 µM

Also need COCCNc1ncc(COc2cc(/C=C3\SC(=O)N(C)C3=O)c(Br)c(F)c2O)cn1 , thanks. ≤ 0.5 µM

Also need O=C1/C(=C/c2cc(OCc3cnc(NCCO)nc3)c(O)cc2Br)Sc2ncccc21 , thanks. ≤ 0.5 µM

Also need CN1C(=O)S/C(=C\c2cc3c(Cc4cnc(N)nc4)c[nH]c3cc2Br)C1=O , thanks. ≥ 10 µM
